System: Porcine Smooth Muscle Cell
Assay: Effects of compounds on cell proliferation using 3H thymidine incorporation
Assay type: cell-based
Conditions: serum/growth factor stimulated cells, 3H thymidine incorporation, 24-36 h; read-out: Porcine Smooth Muscle Cell Antiproliferation IC50
pIC50: −log10 of the molar value.

>  <Structure notation>
CC(=O)O[C@@H]1[C@@H](OC(C)=O)[C@@H](O[C@H]2[C@H](OC(C)=O)[C@@H](OC(C)=O)[C@H](OCc3ccc(C)c([N+](=O)[O-])c3)O[C@@H]2COS(=O)(=O)c2ccc(C)cc2)O[C@H](COS(=O)(=O)c2ccc(C)cc2)[C@H]1OC(C)=O

>  <pIC50>
4.17

$$$$
>  <Structure notation>
CC(=O)OC[C@H]1O[C@H](O[C@H]2[C@H](OC(C)=O)[C@@H](OC(C)=O)[C@H](OCc3ccc(C#N)c([N+](=O)[O-])c3)O[C@@H]2COC(C)=O)[C@H](OC(C)=O)[C@@H](OC(C)=O)[C@@H]1OC(C)=O

>  <pIC50>
5.69

$$$$
>  <Structure notation>
CC(=O)Nc1cc(CS[C@@H]2O[C@H](COC(C)=O)[C@@H](O[C@H]3O[C@H](COC(C)=O)[C@@H](OC(C)=O)[C@H](OC(C)=O)[C@H]3OC(C)=O)[C@H](OC(C)=O)[C@H]2OC(C)=O)ccc1Cl

>  <pIC50>
5.10

$$$$
>  <Structure notation>
CC(=O)OC[C@H]1O[C@H](O[C@H]2[C@H](OC(C)=O)[C@@H](OC(C)=O)[C@H](OCc3ccc(Cl)c(NC(=O)c4ccc(C(=O)c5ccccc5)cc4)c3)O[C@@H]2COC(C)=O)[C@H](OC(C)=O)[C@@H](OC(C)=O)[C@@H]1OC(C)=O

>  <pIC50>
6.79

$$$$

Source listed as patent US7514411B2.
